Values compiled from patent US20250026718A1.

- protocol-notes: solubility of Freeform Form A in solvents
- Type: physicochemical
- particulars: EtOAc, organic solvent or mixture
endpoint: solubility

What value of solubility has been recorded for this entry: COc1ccc([C@@]23CCC(=O)C[C@@H]2N(C)CC3)cc1OC [Freeform Form A]
19 to 38 mg/mL

----------
- protocol-notes: solid state stability: storage at 25° C./60% RH and 40° C./75% RH for 1 week, XRPD and HPLC purity
- Type: physicochemical
- particulars: 40° C./75% RH/open/1 week, XRPD
endpoint: Form change

COc1ccc([C@@]23CCC(=O)C[C@@H]2N(C)CC3)cc1OC.O=C(O)c1cc(O)ccc1O [Gentisate Form A] | No
COc1ccc([C@@]23CCC(=O)C[C@@H]2N(C)CC3)cc1OC.O=S(=O)(O)c1ccccc1 [Besylate Form B] | No
COc1ccc(C23CCC(=O)CC2N(C)CC3)cc1OC.Cl (stereo not shown) [HCl Form A] | No

----------
- protocol-notes: kinetic solubility in H2O and bio-relevant media (SGF, FaSSIF, FeSSIF) at 37° C.
- Type: physicochemical
- particulars: simulated gastric fluid, thermodynamic from solid; SGF, 2 hrs, 37° C.; read-out: S: Solubility (mg/mL), calculated by freebase
endpoint: solubility at 2 h

What value of solubility at 2 h has been recorded for this entry: COc1ccc([C@@]23CCC(=O)C[C@@H]2N(C)CC3)cc1OC [Freeform Form A]
> 9.2 mg/mL

----------
- protocol-notes: solid state stability: storage at 25° C./60% RH and 40° C./75% RH for 1 week, XRPD and HPLC purity
- Format: physicochemical
- particulars: 25° C./60% RH/open/1 week, XRPD
endpoint: Form change

COc1ccc([C@@]23CCC(=O)C[C@@H]2N(C)CC3)cc1OC.O=C(O)c1cc(O)ccc1O [Gentisate Form A] | No
COc1ccc(C23CCC(=O)CC2N(C)CC3)cc1OC.Cl (stereo not shown) [HCl Form A] | No
COc1ccc([C@@]23CCC(=O)C[C@@H]2N(C)CC3)cc1OC.O=S(=O)(O)c1ccccc1 [Besylate Form B] | No

----------
- protocol-notes: kinetic solubility in H2O and bio-relevant media (SGF, FaSSIF, FeSSIF) at 37° C.
- Assay type: physicochemical
- particulars: simulated gastric fluid, thermodynamic from solid; SGF, 37° C., at 1, 2, 4 and 24 hrs
endpoint: solubility kinetic

What value of solubility kinetic has been recorded for this entry: COc1ccc([C@@]23CCC(=O)C[C@@H]2N(C)CC3)cc1OC [Freeform Form A]
> 8300 µg/mL

----------
- protocol-notes: kinetic solubility in H2O and bio-relevant media (SGF, FaSSIF, FeSSIF) at 37° C.
- Format: physicochemical
- particulars: thermodynamic from solid; FaSSIF, 4 hrs, 37° C.; read-out: S: Solubility (mg/mL), calculated by freebase
endpoint: solubility at 4 h

What value of solubility at 4 h has been recorded for this entry: COc1ccc([C@@]23CCC(=O)C[C@@H]2N(C)CC3)cc1OC [Freeform Form A]
> 8.3 mg/mL

----------
- protocol-notes: kinetic solubility in H2O and bio-relevant media (SGF, FaSSIF, FeSSIF) at 37° C.
- Format: physicochemical
- particulars: thermodynamic from solid; FaSSIF, 1 hr, 37° C.; read-out: S: Solubility (mg/mL), calculated by freebase
endpoint: solubility at 1 h

What value of solubility at 1 h has been recorded for this entry: COc1ccc([C@@]23CCC(=O)C[C@@H]2N(C)CC3)cc1OC [Freeform Form A]
> 8.7 mg/mL
